Molecular target: Inadl_3, Q8NI35
Sequence (Q8NI35 359-469): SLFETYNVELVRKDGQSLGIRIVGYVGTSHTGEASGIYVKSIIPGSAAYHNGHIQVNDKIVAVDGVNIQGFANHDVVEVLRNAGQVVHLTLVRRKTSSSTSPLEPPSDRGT
Experiment: holdup assay
Parameters: key: below the threshold = too weak to quantify, mostly under pKd 3.1 to 4
Conditions: plain residues with an end cap or a label only (N-terminal biotin on a linker: ado-ado)
RESULT TYPE: pKd

Illustrative cases are given below, each with its answer.
{"columns": ["BINDER", "ASSAY VALUE"],
 "data": [
  ["EDPRVEVTQF [SLC22A9, Q8IVM8]", "below the threshold"],
  ["NTANRRTTPV [CACNG2, Q9Y698]", "below the threshold"],
  ["EDGESWEYQI [TRPV6, Q9H1D0]", 5.33],
  ["AAVENKVTDL [PLXNB1, O43157]", "below the threshold"],
  ["LESTTVGTSV [KARS1, Q15046]", "below the threshold"],
  ["VKRNSKETVV [MARCHF3, Q86UD3]", 3.49],
  ["NTLNRKTTPV [CACNG8, Q8WXS5]", "below the threshold"],
  ["QSYPSKHDYV [CLDN18, P56856]", "below the threshold"],
  ["SRSVVESDEL [MYPN, Q86TC9]", "below the threshold"],
  ["PPGKHLVTEV [KCNA7, Q96RP8]", 3.7]
]}

# pKd lookup, item NISYRRESAI [KCNJ4, P48050] below the threshold

# pKd lookup, item EKCGKEFSEF [PRKACA, P17612] below the threshold

# pKd lookup, item MHIQEKGFHV [EPHA6, Q9UF33] below the threshold

# pKd lookup, item LKDDELKTKL [SLCO1A2, P46721] below the threshold

# pKd lookup, item TISFTQTSQF [SLC1A1, P43005] below the threshold

# pKd lookup, item QKAPTKEFYA [SDC2, P34741] below the threshold

# pKd lookup, item EIPAQSPTCV [FZD10, Q9ULW2] 3.62
